Source: patent US20030148958A1

- assayed target: T1, corticotropin releasing factor 2 receptor; further: reference of the scale not given here
- T1 sequence (Q13324 whole entry, species assumed, looked up): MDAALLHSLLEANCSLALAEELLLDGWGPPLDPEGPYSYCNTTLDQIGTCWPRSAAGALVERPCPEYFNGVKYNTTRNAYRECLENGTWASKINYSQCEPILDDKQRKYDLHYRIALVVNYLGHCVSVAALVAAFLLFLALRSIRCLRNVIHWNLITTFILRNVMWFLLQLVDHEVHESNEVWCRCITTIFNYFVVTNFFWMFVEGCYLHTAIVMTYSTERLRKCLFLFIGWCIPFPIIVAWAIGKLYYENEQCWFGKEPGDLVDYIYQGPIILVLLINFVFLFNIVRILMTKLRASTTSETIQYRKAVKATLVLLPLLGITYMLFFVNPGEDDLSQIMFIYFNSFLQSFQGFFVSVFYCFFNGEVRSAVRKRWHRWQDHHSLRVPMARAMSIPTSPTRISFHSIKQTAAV
- test summary: cell-based or functional assay
Ends that are not written are not given here.
reported endpoint: CRF2R Emax (%)
Use % as the unit, but write only the number.

What does the record list as CRF2R Emax for SQEPPISLDLPLHLLREVLEMTKADQLAQQAHSNRKLLDIA-NH2 [SEQ ID NO 102] ?
13.5

Which measured CRF2R Emax value corresponds to ZGPPISIDLPLQLLRKMIEIEKQEKEKQQAANNRLLLDTI (C-terminal amide) [SEQ ID NO 80] ?
88

Quick check: CRF2R Emax of SQEPPISLDLPTGLLREVLEMTKADQLAQQAHSNRKLLDIA-NH2 [SEQ ID NO 98] ?
5.5

What does the record list as CRF2R Emax for IVLSLDVPIGLLQILLEMARAEQLAQQAHSNRKLMEII-NH2 [SEQ ID NO 164] ?
92

Which value of CRF2R Emax has been reported for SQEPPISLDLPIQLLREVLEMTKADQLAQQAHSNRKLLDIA-NH2 [SEQ ID NO 100] in the records?
9.85

Dear colleague, I am looking for the recorded CRF2R Emax of the following binder: ZGPPISIDLPIKLLRKMIEIEKQEKEKQQAANNRLLLDTI (C-terminal amide) [SEQ ID NO 34]
45

Record request: CRF2R Emax value, item ZGPPISIDLSIGLLRKMIEIEKQEKEKQQAANNRLLLDTI (C-terminal amide) [SEQ ID NO 25]
81.9

Fill in: CRF2R Emax of ZGPPISIDLSLELLRKMIEQARARAAREQATTNARILARV (C-terminal amide) [SEQ ID NO 156] is ___
79

Which CRF2R Emax value is on record for ZGPPISIDLPIVLLRKMIEIEKQEKEKQQAANNRLLLDTI (C-terminal amide) [SEQ ID NO 31] ?
100

Need CRF2R Emax, item IVLSLDVPIGLLQILLEIEKQEKEKQQAANNRLLLDTI-NH2 [SEQ ID NO 158]
89

Query: CRF2R Emax; subject: ZGPPISIDLPVYLLRKMIEIEKQEKEKQQAANNRLLLDTI (C-terminal amide) [SEQ ID NO 39]
94

What value of measured CRF2R Emax is listed for ZGPPISIDLSLELLRKMIEIEKQEKEKQQAANNALLLATI (C-terminal amide) [SEQ ID NO 30] ?
85.5
